biological target: Mitogen-activated protein kinase 8 (Homo sapiens, UniProt P45983); assay: Inhibition of recombinant JNK1 using ser73 of c-jun as substrate preincubated for 15 mins measured after 60 mins by TR-FRET assay
Sequence (P45983 whole entry): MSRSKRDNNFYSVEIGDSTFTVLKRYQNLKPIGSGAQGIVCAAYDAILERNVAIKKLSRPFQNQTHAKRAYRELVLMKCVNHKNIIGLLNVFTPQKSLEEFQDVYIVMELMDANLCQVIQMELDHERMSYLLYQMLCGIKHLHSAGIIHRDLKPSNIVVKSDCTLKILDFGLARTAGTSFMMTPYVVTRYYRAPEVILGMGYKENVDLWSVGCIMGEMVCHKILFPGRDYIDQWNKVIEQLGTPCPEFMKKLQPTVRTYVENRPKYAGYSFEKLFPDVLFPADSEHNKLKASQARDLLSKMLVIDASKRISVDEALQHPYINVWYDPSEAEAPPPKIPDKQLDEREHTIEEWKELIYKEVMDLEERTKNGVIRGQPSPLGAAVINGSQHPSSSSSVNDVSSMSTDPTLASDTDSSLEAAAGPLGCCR
pIC50: −log10 of the molar value.
A collection of compounds and their measured pIC50

sampleSmiles	studySystem	pIC50
O=C(Cn1c(=O)ccc2c(C(F)(F)F)cccc21)Nc1scc(Br)c1-c1ncn[nH]1	Mitogen-activated protein kinase 8 (Homo sapiens, UniProt P45983)	7.51
O=C(Cc1cccc2ncc(C(F)(F)F)cc12)Nc1scc(Br)c1-c1nc[nH]n1	Mitogen-activated protein kinase 8 (Homo sapiens, UniProt P45983)	7.68
O=C(Cn1c(=O)ccn2nc(C(F)(F)F)cc12)Nc1scc(Br)c1-c1ncn[nH]1	Mitogen-activated protein kinase 8 (Homo sapiens, UniProt P45983)	8.52
O=C(Cc1cc(C(F)(F)F)cc2ncccc12)Nc1scc(Br)c1-c1nnc[nH]1	Mitogen-activated protein kinase 8 (Homo sapiens, UniProt P45983)	6.75
O=C(CN1C(=O)CCc2ncccc21)Nc1scc(Br)c1-c1ncco1	Mitogen-activated protein kinase 8 (Homo sapiens, UniProt P45983)	8.15
O=C(Cn1c(=O)ccc2cnccc21)Nc1scc(Br)c1-c1ncn[nH]1	Mitogen-activated protein kinase 8 (Homo sapiens, UniProt P45983)	8.40
O=C(Cc1ccc(F)c2cnccc12)Nc1scc(Br)c1-c1ncn[nH]1	Mitogen-activated protein kinase 8 (Homo sapiens, UniProt P45983)	7.80
O=C(CN1C(=O)CCc2ncccc21)Nc1scc(Br)c1-c1nccs1	Mitogen-activated protein kinase 8 (Homo sapiens, UniProt P45983)	7.89
O=C(Cn1c(=O)ccc2ccc(OC(F)(F)F)cc21)Nc1scc(Br)c1-c1ncn[nH]1	Mitogen-activated protein kinase 8 (Homo sapiens, UniProt P45983)	7.96
O=C(Cn1c(=O)ccc2cc(C(F)(F)F)ccc21)Nc1scc(Br)c1-c1ncn[nH]1	Mitogen-activated protein kinase 8 (Homo sapiens, UniProt P45983)	8.70
O=C(CN1C(=O)CCc2ncccc21)Nc1scc(Br)c1-c1ncn[nH]1	Mitogen-activated protein kinase 8 (Homo sapiens, UniProt P45983)	8.05
Cn1cnc(-c2c(Br)csc2NC(=O)CN2C(=O)CCc3ncccc32)n1	Mitogen-activated protein kinase 8 (Homo sapiens, UniProt P45983)	9.00
O=C(Cn1c(=O)ccc2ccc(C(F)(F)F)cc21)Nc1scc(Br)c1-c1ncn[nH]1	Mitogen-activated protein kinase 8 (Homo sapiens, UniProt P45983)	8.22
O=C(Cc1cc(F)cc2ncccc12)Nc1scc(Br)c1-c1ncn[nH]1	Mitogen-activated protein kinase 8 (Homo sapiens, UniProt P45983)	7.85
O=C(Cn1c(=O)ccc2cnc(C(F)(F)F)cc21)Nc1scc(Br)c1-c1ncn[nH]1	Mitogen-activated protein kinase 8 (Homo sapiens, UniProt P45983)	8.40
N#Cc1csc(NC(=O)Cn2c(=O)ccc3cc(C(F)(F)F)ccc32)c1-c1cscn1	Mitogen-activated protein kinase 8 (Homo sapiens, UniProt P45983)	8.70
N#Cc1csc(NC(=O)CN2C(=O)CCc3ncccc32)c1-c1nc[nH]n1	Mitogen-activated protein kinase 8 (Homo sapiens, UniProt P45983)	8.30
O=C(Cn1c(=O)ccc2cc(F)c(F)cc21)Nc1scc(Br)c1-c1ncn[nH]1	Mitogen-activated protein kinase 8 (Homo sapiens, UniProt P45983)	8.52
